Consider the following compounds; for each one, report its MIC, wild type bacteria.
Tested on: bacterial ribosomes
Assay: Ribosomal drug susceptibility (MIC) of recombinant bacteria
Settings: Table 10

Form field MIC, wild type bacteria for item CC(=O)O.CC(=O)O.CC(=O)O.CC(=O)O.CN[C@@H]1[C@@H](O[C@H]2O[C@H](CO)[C@@H](N)[C@H](O)[C@H]2O)O[C@H]2C[C@@H](NC(=O)[C@@H](O)CCN)[C@@H](O[C@H]3[C@H](O)[C@@H](O)[C@H](N)C[C@@H]3N)O[C@@H]2[C@@H]1O on bacterial ribosomes: 2.0 to 4.0 µg/mL

Simply: CNC1C(OC2OC(CO)C(NC(=O)C(O)CCN)C(O)C2O)OC2CC(N)C(OC3C(N)CC(N)C(O)C3O)OC2C1O (stereo not drawn) , bacterial ribosomes, MIC, wild type bacteria = 4.0 µg/mL

// MIC, wild type bacteria (bacterial ribosomes) for CC(=O)O.CC(=O)O.CC(=O)O.CC(=O)O.CNC1C(OC2OC(CO)C(N)C(O)C2O)OC2CC(NC(=O)C(O)CCN3C(=O)c4ccccc4C3=O)C(OC3C(N)CC(N)C(O)C3O)OC2C1O (stereo not drawn) = 8.0 µg/mL

Query CC(=O)O.CC(=O)O.CC(=O)O.CC(=O)O.CNC1C(OC2OC(CO)C(N)C(O)C2O)OC2CC(N)C(OC3C(N)CC(NC(=O)C(O)CCN)C(O)C3O)OC2C1O (stereo not drawn) on bacterial ribosomes; MIC, wild type bacteria returned: 4.0 µg/mL

I looked up CC(=O)O.CC(=O)O.CC(=O)O.CC(=O)O.CN1C(=O)OC2C3OC(OC4C(N)CC(N)C(O)C4O)C(N)CC3OC(OC3OC(CO)C(NC(=O)C(O)CCN)C(O)C3O)C21 (stereo not drawn) and its MIC, wild type bacteria for bacterial ribosomes was 2.0 to 4.0 µg/mL

MIC, wild type bacteria on bacterial ribosomes for CNC1C(OC2OC(CO)C(N)C(O)C2O)OC2CC(N)C(OC3C(N)CC(N)C(O)C3O)OC2C1O (stereo not drawn) is 1.0 to 2.0 µg/mL
